Below, each entry is listed alongside its reported pKi.
study-target: Recombinant Human TACE/ADAM17 (Homo sapiens, UniProt P78536)
Sequence (P78536 215-824): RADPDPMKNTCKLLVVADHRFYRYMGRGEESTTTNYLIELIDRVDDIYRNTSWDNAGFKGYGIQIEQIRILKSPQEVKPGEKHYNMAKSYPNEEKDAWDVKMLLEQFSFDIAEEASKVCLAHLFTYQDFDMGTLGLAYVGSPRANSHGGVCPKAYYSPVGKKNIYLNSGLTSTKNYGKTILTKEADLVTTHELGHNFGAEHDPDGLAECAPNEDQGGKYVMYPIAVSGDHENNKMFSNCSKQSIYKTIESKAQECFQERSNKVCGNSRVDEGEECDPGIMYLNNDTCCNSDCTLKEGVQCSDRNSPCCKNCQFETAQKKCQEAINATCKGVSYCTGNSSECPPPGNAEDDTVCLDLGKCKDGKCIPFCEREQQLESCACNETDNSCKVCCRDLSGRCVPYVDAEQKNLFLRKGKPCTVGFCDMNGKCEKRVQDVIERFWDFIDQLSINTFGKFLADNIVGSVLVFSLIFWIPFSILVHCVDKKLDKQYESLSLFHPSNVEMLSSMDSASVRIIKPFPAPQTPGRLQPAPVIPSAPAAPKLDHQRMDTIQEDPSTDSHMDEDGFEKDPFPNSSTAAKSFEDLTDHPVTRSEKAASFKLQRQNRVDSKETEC
run-description: TACE inhibition assay, fluorogenic peptide substrate
Note on units: pKi is unitless, being -log10 of a concentration expressed in mol/L.

Use these answered entries as a reference point.
| compound | study-target | recorded-number |
| --- | --- | --- |
| CNC(=O)[C@H](Cc1c[nH]c2ccccc12)NC(=O)[C@@H](CC(=O)NO)CC(C)C [GM-6001, reference compound] | Recombinant Human TACE/ADAM17 (Homo sapiens, UniProt P78536) | 6.95 |
| CNC(=O)C(CCCNC(=N)N)NC(=O)C1Cc2ccc(cc2)OCCCC(C(=O)NO)C(CC(C)C)C(=O)N1 (stereo not drawn) | Recombinant Human TACE/ADAM17 (Homo sapiens, UniProt P78536) | 8.31 |

Query: If you can, please state the reported pKi value of CC(C)CC1C(=O)NC(C(=O)NC(CCCNC(=N)N)C(=O)NCCNC(=O)c2ccc(NN)nc2)Cc2ccc(cc2)OCCCC1C(=O)NO (stereo not drawn) .
Response: 8.07

###

study-target: rhMMP-12 (Homo sapiens, UniProt P39900)
Construct: purchased R&D Systems (Minneapolis, MN, USA)
Sequence (P39900 106-470): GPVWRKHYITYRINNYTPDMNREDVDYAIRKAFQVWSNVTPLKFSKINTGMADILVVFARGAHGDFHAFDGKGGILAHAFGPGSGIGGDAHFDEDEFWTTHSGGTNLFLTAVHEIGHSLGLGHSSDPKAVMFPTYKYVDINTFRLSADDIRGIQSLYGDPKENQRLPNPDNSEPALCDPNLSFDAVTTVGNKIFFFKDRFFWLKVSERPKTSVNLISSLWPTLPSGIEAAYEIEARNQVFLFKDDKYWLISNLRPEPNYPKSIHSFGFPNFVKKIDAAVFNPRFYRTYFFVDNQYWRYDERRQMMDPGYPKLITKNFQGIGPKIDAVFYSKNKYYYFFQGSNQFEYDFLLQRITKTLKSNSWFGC
run-description: MMP inhibition assay, fluorogenic substrate cleavage kinetics
Type: biochemical
stated-conditions: mean ± SD of three experiments
Below, each entry is listed alongside its reported pKi.
Note on units: pKi is unitless, being -log10 of a concentration expressed in mol/L.

| compound | pKi |
| --- | --- |
| CNC(=O)[C@H](Cc1c[nH]c2ccccc12)NC(=O)[C@@H](CC(=O)NO)CC(C)C [GM-6001, reference compound] | 9.22 |

Query: Please tell me: pKi of CNC(=O)C(CCCNC(=N)N)NC(=O)C1Cc2ccc(cc2)OCCCC(C(=O)NO)C(CC(C)C)C(=O)N1 (centres unmarked) , system rhMMP-12 (Homo sapiens, UniProt P39900)?
Response: 9.00

###

study-target: rhMMP-13 (Homo sapiens)
Construct: purchased R&D Systems (Minneapolis, MN, USA)
run-description: MMP inhibition assay, fluorogenic substrate cleavage kinetics
Type: biochemical
stated-conditions: mean ± SD of three experiments; read-out: Ki rhMMP-13
property: pKi
Note on units: pKi is unitless, being -log10 of a concentration expressed in mol/L.

Query: Please tell me: pKi of CNC(=O)C(CCCNC(=N)N)NC(=O)C1Cc2ccc(cc2)OCCCC(C(=O)NO)C(CC(C)C)C(=O)N1 (stereo not shown) , system rhMMP-13 (Homo sapiens)?
Response: 7.82

###

run-description: Water solubility
Format: physicochemical
stated-conditions: described as good water solubility
property: solubility
Write your answer as a measured quantity: the number, then the unit.

| compound | solubility |
| --- | --- |
| CNC(=O)C(CCCNC(=N)N)NC(=O)C1Cc2ccc(cc2)OCCCC(C(=O)NO)C(CC(C)C)C(=O)N1 (centres unmarked) [RYM] | 10000 µg/mL |

Next compound, please.
Query: If you can, please state the reported solubility value of CC(C)CC1C(=O)NC(C(=O)NC(CCCNC(=N)N)C(=O)NCCNC(=O)c2ccc(NN)nc2)Cc2ccc(cc2)OCCCC1C(=O)NO (centres unmarked) [RYM1] .
Response: 10000 µg/mL

###

study-target: rhMMP-7 (Homo sapiens)
Sequence (P09237 95-267): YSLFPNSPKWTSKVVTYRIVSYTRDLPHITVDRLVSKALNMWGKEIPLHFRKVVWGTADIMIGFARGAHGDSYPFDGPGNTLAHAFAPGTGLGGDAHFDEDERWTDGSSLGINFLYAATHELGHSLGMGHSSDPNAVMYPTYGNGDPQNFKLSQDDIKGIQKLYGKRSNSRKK
property: Ki (nM)
Report as a plain number; the unit nM is understood.

Query: If you can, please state the reported Ki value of CNC(=O)[C@H](Cc1c[nH]c2ccccc12)NC(=O)[C@@H](CC(=O)NO)CC(C)C [GM-6001, reference compound] .
Response: 0.4

###

study-target: rhMMP-13 (Homo sapiens)
Construct: purchased R&D Systems (Minneapolis, MN, USA)
run-description: MMP inhibition assay, fluorogenic substrate cleavage kinetics
Type: biochemical
property: pKi
Note on units: pKi is unitless, being -log10 of a concentration expressed in mol/L.

Query: If you can, please state the reported pKi value of CNC(=O)[C@H](Cc1c[nH]c2ccccc12)NC(=O)[C@@H](CC(=O)NO)CC(C)C [GM-6001, reference compound] .
Response: 9.52

###

study-target: UniProt P14780
Sequence (P14780 107-707 limits assumed): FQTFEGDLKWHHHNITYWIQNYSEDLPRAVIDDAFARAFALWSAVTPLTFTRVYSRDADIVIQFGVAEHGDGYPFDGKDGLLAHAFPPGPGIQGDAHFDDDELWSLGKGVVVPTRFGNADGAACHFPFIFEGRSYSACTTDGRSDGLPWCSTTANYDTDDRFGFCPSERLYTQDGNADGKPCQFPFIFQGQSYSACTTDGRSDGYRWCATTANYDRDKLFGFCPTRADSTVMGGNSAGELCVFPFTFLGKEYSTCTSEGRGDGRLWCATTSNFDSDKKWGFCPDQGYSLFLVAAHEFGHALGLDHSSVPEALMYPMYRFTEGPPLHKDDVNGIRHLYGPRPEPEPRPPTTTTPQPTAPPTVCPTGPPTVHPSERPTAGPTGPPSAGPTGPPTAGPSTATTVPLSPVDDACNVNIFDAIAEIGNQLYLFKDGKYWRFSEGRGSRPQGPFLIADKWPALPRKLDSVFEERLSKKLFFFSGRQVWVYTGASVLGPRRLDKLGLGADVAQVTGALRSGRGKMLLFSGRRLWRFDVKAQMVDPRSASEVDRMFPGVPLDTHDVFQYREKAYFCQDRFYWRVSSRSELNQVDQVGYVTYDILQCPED
property: Ki (nM)
Report as a plain number; the unit nM is understood.

Query: Please tell me: Ki of CNC(=O)C(CCCNC(=N)N)NC(=O)C1Cc2ccc(cc2)OCCCC(C(=O)NO)C(CC(C)C)C(=O)N1 (stereo not shown) , system UniProt P14780?
Response: 20.4
